Tested on: MS2 coat protein
Method: apparent KD of MS2 coat protein; higher = weaker reporter binding
Measurement conditions: Eterna round: R107; input ligand: none
// label = 1 if apparent KD of MS2 coat protein is not less than 80 nM, otherwise -1

Is apparent KD of MS2 coat protein for GGGCCCGGGCGCGAGCCCGGGCCCAUUGAUACCAGUGAUAUAUGACGCCCUUGGCAGCGAAUCCUAACAUGAGGAUCACCCAUGU [5.H] at or above 80 nM?
-1

Is apparent KD of MS2 coat protein for UUGGGUUUGCGAAGGAGCGGGUAUGUUUUCUAGUGGAUCCUAACAUGAGGAUCACCCAUGUCCCAGGUAGGUCGCGCGGGUUUGG [12.V] at or above 80 nM?
1

Is apparent KD of MS2 coat protein for AAAGACAUGAGGAUCACCCAUGUGGGUGGGCGAGGACCGGUACGGCCGCCACUCGUGGGCGGGAAGGGAUAUUUAAUAAGGAAGA [same state--tryptophan A 1st shot] at or above 80 nM?
1

Is apparent KD of MS2 coat protein for GCAUCCUAGUCGGCCGCCACUGCAGUAGCACCUGCUACAUGGAAACAUGAGGAUCACCCAUGUAGCAGGACCGGGACUAGGAUGC [(Trp1)-(TM)''-(TM)'-(Ms2)-(Trp2)_Design8] at or above 80 nM?
1

Is apparent KD of MS2 coat protein for GGAUAGGACAGAAGGAGCGACAUCGCCGAAAGGCUGGUAAGAUCACAUGAGGAUCACCCAUGUCAGGUAGGUCGCUGUCCUAUCG [ArgXB 11 #Zipper #MS2Left #StaticStem #Blueprint] at or above 80 nM?
1

Is apparent KD of MS2 coat protein for ACAUGAGGAUCACCCAUGUACAUGAGGGAAGGAGCGGUACAUGUGCCAGGUAGGUCGCCCAUGAGCAUCAGCCAUGUACAUCAGC [l,ommullin] at or above 80 nM?
1

Is apparent KD of MS2 coat protein for AAUAAUAACAUGGGUGAAGUCGUACCAUAACGAGGACCGGUACGGCCGCCACUCGAACAUGAGGAUCACCCAUGUAGGUACGACA [M'-T'-T-MS2-T'' - Design 9] at or above 80 nM?
1

Is apparent KD of MS2 coat protein for CACAUGAGGAUCACCCAUGUCUGAACUGAAGGAGCGCUAAACAAGGCAGGUAGGUCGCGGAAUCUUGUGUGCAUAUGCACACGGG [9.S] at or above 80 nM?
-1

Is apparent KD of MS2 coat protein for AAUAAGCAGCUGCAUCAUGGGUGAGCAGAUACCAGCUAGGAAACUAGCCCUUGGCAGCUGCAACAUGAGGAUCACCCAUGUAAUA [(T)'-(M)'-(T1)-(T2)-(M1)-(M2)_Design5] at or above 80 nM?
-1

Is apparent KD of MS2 coat protein for `GGGUACAUCGCGGCCGCCACUCAUGUAAAUUCAUGAGGAUCACCCAUGACGAUGGAGACAUCGGAGAGGACCGGGUGAUGUACCG` at or above 80 nM?
-1

Is apparent KD of MS2 coat protein for AAAAUAAACUCGGCCGCCACUCAACGGACCCUUUGGACAUGAGGAUCACCCAUGUAUUUUGGAAAGAGGACCGGGAGAAAUAAAA [Exclusion - Trytophan B] at or above 80 nM?
-1

Is apparent KD of MS2 coat protein for GGUGGCUGGACUGAUACCAGCCACCACCGAUAGACCACAUGAGGAUCACCCAUGUUGGGUGGCCCUUGGCAGCAGUCCAGCUGCC [#1 Same State - Theophylline B Attempt #10 (HarryS)] at or above 80 nM?
1

###

Test system: K4 kissing-loop RNA reporter;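 note: bound reporter read as fluorescence of individual clusters on recovered sequencing chips by microscopy, with normalized cluster intensities fitted with a binding model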
Method: apparent KD of K4 kissing-loop reporter; higher = weaker reporter binding
Measurement conditions: Eterna round: R107; input ligand: FMN 200 uM
Assign apparent KD of K4 kissing-loop reporter to each entry below.
Respond with the bare value in nM.

Quick one: apparent KD of K4 kissing-loop reporter for AAGAGGUAGGCGGCCGCCACUUGUUGUGAACACAUACGAGCCAGUGAUGUUGGUAUUGUGUGCGGAAGGACCGGGCCUACCUGAA [Exclusion - Tryptophan B (Freestyle 21)] ?
146

Quick one: apparent KD of K4 kissing-loop reporter for AAACAUCACUGGGAGUGAUGUUCUCAGUGACGAGGACCGGUACGGCCGCCACUCGCGAGAGAUAUAAAUAAGUAAUGACAUCAUU [Excl Tryptophan A V1] ?
359

Quick one: apparent KD of K4 kissing-loop reporter for CCGCUACCCUCAGGAUAUUAAGUAUUAGUGAUGUUAGUAAACCGAUGGCGAAAGCCAUCGGUAUGUUGAGAAGGGAGGGUAGCGG [whbob_SS_FMNB__2th198] ?
356

Quick one: apparent KD of K4 kissing-loop reporter for GAACGAGUGAUGUUCGUUGGCAUGCAUUCCGAGGAUAUGGGAUUAGCCAGAAGGCGGAAUCAGUCUUCGAGUGAUGUUCGAAGAU [Same State FMN A GF 12] ?
112

Quick one: apparent KD of K4 kissing-loop reporter for GUUCUCGAAACUCAGUGAUGUUGAGUUGCAGAGGAUAUCCGCACAUGGAGAAGGCUGCAGUAAUUUAAAGACUCAGCGGCGCUCC [Riare] ?
112

Quick one: apparent KD of K4 kissing-loop reporter for UACUAACGUUAAGGAUAUGCGUCGAUUACCGGUAAGUGAUGUUUAGCGCCCGGGCAACGGUGGGUCGCAGAAGGUAAACACAGUU [theeternabot_sameState_KL_FMN_B_19] ?
689

Quick one: apparent KD of K4 kissing-loop reporter for AGAGUUAUGCGAGGAUAUGCAGUUAGUACUCAAAGAGUACUAACGCAGAGUGAUGUUCUGUGAAAAGCAGAAGGUGCAUAACUCA [Omei KL FMN B SS B v6] ?
155

Quick one: apparent KD of K4 kissing-loop reporter for GGAGUUACCUGGGAUACCAGUCGGAGUCUCAGAGCUCGGAGUGAUGUUCUGGGAUGUUUCGGCCCUUGGCAGCUCUGGGACUCCA [#2 Exclusion - Theophylline B Attempt #16 (HarryS)] ?
924

Quick one: apparent KD of K4 kissing-loop reporter for AUCCGGAGUGCGGCCGCCACUAUCGGAUAGAGUGAUGUUCUAUCCGGCCUUAAAGGCGCGAACGAUAGGACCGGGCACUCUAAAU [Quatinti] ?
121

Quick one: apparent KD of K4 kissing-loop reporter for AGUGUGCAAAAGCACACUCAGCACAAGGACAAGGAUAUCUACUAAUAGAGAAGGUGUCCUUUCCUUAGUGAUGUUAAGGAGCUGA [Omei KL FMN A SS D v1] ?
238

Quick one: apparent KD of K4 kissing-loop reporter for AAAAUAAUCCAGUGAUGUUGGUAUCCAGAUACCAGCCAGGAAACUGGCCCUUGGCAGCUGGCGACGUACAAAAUAAGUACGUCGU [#OpenEnded 11 #StaticStem #K4Early] ?
405

Quick one: apparent KD of K4 kissing-loop reporter for UAGAGUCACAAGACAGUGAUGUUGUCUACUGAGGAUAUCAUGAAUAUGAGAAGGCAGUGUUGGAGGUCUCUAACAACAGACUCUG [FMN A SS t3] ?
237

Quick one: apparent KD of K4 kissing-loop reporter for `GCCGUACGCAUGGAUACCAGACUACCAUUGGAAACAAUGUGUCCGGUAGUGAUGUUACCUGUCCCUUGGCAGCCAUGCGUACGGC` ?
649

Quick one: apparent KD of K4 kissing-loop reporter for `GCCGUACGCAUGGAUACCAGUCUUUCGCGACUGGACAUGGAGUGAUGUUUCGUGAUGCUAGACCCUUGGCAGCCAUGCGUACGGC` ?
233

Quick one: apparent KD of K4 kissing-loop reporter for UGACAUUGCUCAGAUACCAGACAUGAGCAUCAGCCAUGUGCCAAACGUACAAUAAUAAAUGUCCCUUGGCAGCUGAGCAAUGUCU [TheoBX 14] ?
74.2

Quick one: apparent KD of K4 kissing-loop reporter for AAAAGCCAGCAAGGAUAUACGCGCGAAGCAUCCAUGGUGCCAGUUCCAGUGAUGUUGGACCACAUCGUAGAAGGUGCGCGGCUCA [theeternabot_sameState_KL_FMN_B_33] ?
440

Quick one: apparent KD of K4 kissing-loop reporter for AUGCUUCAGUAAGGAUAUGGAGGCAGAGUGAAGAUUGUCGUGUAACCGAGUUAAGUGAUGUUUGAUCCAGAAGGUACAUGCGUGU [theeternabot_exclusion_KL_FMN_B_15] ?
926

Quick one: apparent KD of K4 kissing-loop reporter for AAGUCAUAGGCAGGAUAUGCUUAGUAAUAAGGCCAUAUAUACGUAUAGAGUGAUGUUUUGUACCAGGCAGAAGGGCUACAUCAGU [FMN B Excl V8 (+2A)] ?
541

Quick one: apparent KD of K4 kissing-loop reporter for UGAUUUAACUGAAGGAGCGGCAAGAGAGAAGGAAAUAUAGUGAUGUUAUAUAAGAGAGAGAGCCAGGUAGGUCGCAGAGGGAGGA [ExArgB.E] ?
126

Quick one: apparent KD of K4 kissing-loop reporter for UCGCAAAAGUCGGCCGCCACUCCGGGCCCUAUAAAUGGGCGCAGUGAUGUUGCGGCUAGGCCUCUGAGGACCGGGACUUUGUAGC [Tixelequ] ?
221

Quick one: apparent KD of K4 kissing-loop reporter for AAGUGAUGUUGUAGUGAUGUUGUGAUGUUGCAGGAUAUAUAGUGAUGUAGAAGGGUAUGUGCAGUGUUGUUGUUUGAGUGUUCAU [dttyumullin] ?
95.4

Quick one: apparent KD of K4 kissing-loop reporter for CGCAGUGAUGUUGCGAAUAUAAUAACGGAAGGAGCGCGUGAAAACGCAGGUAGGUCGCCGUUUGGUAUGAUGGAAACAUCGUACC [Arginine A K4 11] ?
135

Quick one: apparent KD of K4 kissing-loop reporter for AAAUAUUCGAGUGAUGUUCGAUAAAUUUCAGAGGAUAUGCUUAAAAGCAGAAGGCUGUAUUUCUAUUUGUUAUGAAAUUUUAUAA [JR_ExcFMNA_Sub003] ?
103

# credit: the supplement of paper PMC9170038
